# key: entry, value: Activity
experimental_system: von Hippel-Lindau disease tumor suppressor/Serine/threonine-protein kinase PAK 1 (Homo sapiens, UniProt Q13153+P40337)
Sequence (P40337 whole entry partner, one chain of several): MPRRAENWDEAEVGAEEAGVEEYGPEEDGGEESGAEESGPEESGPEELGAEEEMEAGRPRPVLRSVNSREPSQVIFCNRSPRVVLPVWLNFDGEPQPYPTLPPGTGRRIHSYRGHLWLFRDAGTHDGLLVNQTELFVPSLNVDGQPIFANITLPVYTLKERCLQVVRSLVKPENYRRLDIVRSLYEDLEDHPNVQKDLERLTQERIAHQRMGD
protocol: PROTAC activity at VHL/PAK1 in human MDA-MB-231 cells assessed as induction of protein degradation at 2.5 uM incubated for 48 hrs by Western blot analysis relative to control
Assay type: cell-based
Numbers only here, please. The scale is %.

structure_as_smiles | property_name | unit_of_measurement | measurement
Cc1ncsc1-c1ccc([C@H](C)NC(=O)[C@@H]2C[C@@H](O)CN2C(=O)[C@@H](NC(=O)CCc2cn(CCOCCn3c(=O)c(-c4ccc(Cl)cc4Cl)cc4cnc(NC5CC5)nc43)nn2)C(C)(C)C)cc1 | Activity | % | 44.3
Cc1ncsc1-c1ccc([C@H](C)NC(=O)[C@@H]2C[C@@H](O)CN2C(=O)[C@@H](NC(=O)CCc2cn(CCCCCCn3c(=O)c(-c4ccc(Cl)cc4Cl)cc4cnc(NC5CC5)nc43)nn2)C(C)(C)C)cc1 | Activity | % | 67.1

Requested read-out: Activity. Entry: `Cc1ncsc1-c1ccc([C@H](C)NC(=O)[C@@H]2C[C@@H](O)CN2C(=O)[C@@H](NC(=O)CCc2cn(CCCCn3c(=O)c(-c4ccc(Cl)cc4Cl)cc4cnc(NC5CC5)nc43)nn2)C(C)(C)C)cc1` 10.4

====

Tested on: MDA-MB-231
protocol: Antiproliferative activity against human MDA-MB-231 cells incubated for 48 hrs by MTT assay
Assay type: functional, cell-based
condition_notes: MDA-MB-231, 48 h
pIC50: −log10 of the molar value.
property_name: pIC50

Example results:
compound | experimental_system | measurement
O=C1CCC(N2C(=O)c3cccc(NCc4cn(CCCCCCn5c(=O)c(-c6ccc(Cl)cc6Cl)cc6cnc(NC7CC7)nc65)nn4)c3C2=O)C(=O)N1 (stereo not drawn) | MDA-MB-231 | 4.49
O=C1CCC(N2C(=O)c3cccc(NCc4cn(CCOCCn5c(=O)c(-c6ccc(Cl)cc6Cl)cc6cnc(NC7CC7)nc65)nn4)c3C2=O)C(=O)N1 (stereo not drawn) | MDA-MB-231 | < 4.30

Now turn to the next compound.
Requested read-out: pIC50. Entry: `Cc1ncsc1-c1ccc([C@H](C)NC(=O)[C@@H]2C[C@@H](O)CN2C(=O)[C@@H](NC(=O)CCc2cn(CCCCn3c(=O)c(-c4ccc(Cl)cc4Cl)cc4cnc(NC5CC5)nc43)nn2)C(C)(C)C)cc1` < 4.30

====

experimental_system: Protein cereblon/Serine/threonine-protein kinase PAK 1 (Homo sapiens) (UniProt Q13153+Q96SW2)
Sequence (Q13153 whole entry, looked up): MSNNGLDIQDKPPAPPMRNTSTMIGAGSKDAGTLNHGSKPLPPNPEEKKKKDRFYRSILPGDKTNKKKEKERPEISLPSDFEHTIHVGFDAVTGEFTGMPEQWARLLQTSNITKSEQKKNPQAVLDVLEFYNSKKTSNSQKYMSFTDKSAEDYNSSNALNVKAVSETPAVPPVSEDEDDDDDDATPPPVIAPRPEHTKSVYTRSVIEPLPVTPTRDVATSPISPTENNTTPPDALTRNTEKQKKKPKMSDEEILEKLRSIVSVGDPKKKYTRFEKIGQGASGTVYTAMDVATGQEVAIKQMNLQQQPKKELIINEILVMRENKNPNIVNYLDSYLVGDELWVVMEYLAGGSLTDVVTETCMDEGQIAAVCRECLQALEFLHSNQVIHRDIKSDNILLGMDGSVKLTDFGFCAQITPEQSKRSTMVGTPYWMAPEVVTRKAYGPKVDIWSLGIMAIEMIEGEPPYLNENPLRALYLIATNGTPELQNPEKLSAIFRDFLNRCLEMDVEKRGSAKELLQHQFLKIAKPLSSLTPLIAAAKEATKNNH
Sequence (Q96SW2 whole entry, looked up): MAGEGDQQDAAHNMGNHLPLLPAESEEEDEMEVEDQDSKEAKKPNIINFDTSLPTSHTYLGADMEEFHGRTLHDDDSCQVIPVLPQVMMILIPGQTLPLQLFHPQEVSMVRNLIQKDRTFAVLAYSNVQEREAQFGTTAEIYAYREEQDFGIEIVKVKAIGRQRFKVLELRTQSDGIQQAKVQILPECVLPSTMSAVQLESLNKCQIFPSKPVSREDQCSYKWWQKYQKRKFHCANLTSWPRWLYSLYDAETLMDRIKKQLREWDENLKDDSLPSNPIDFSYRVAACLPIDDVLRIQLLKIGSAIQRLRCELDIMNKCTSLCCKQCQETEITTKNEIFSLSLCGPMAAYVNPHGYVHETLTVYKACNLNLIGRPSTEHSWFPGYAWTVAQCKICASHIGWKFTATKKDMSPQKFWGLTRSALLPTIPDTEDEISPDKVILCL
protocol: PROTAC activity at CRBN/PAK1 in human MDA-MB-231 cells assessed as induction of protein degradation at 2.5 uM incubated for 48 hrs by Western blot analysis relative to control
Format: cell-based
property_name: Activity (%)
Numbers only here, please. The scale is %.

Example results:
compound | Activity [%]
CNc1ncc2cc(-c3ccc(Cl)cc3Cl)c(=O)n(CCOCCOCCn3cc(CNc4cccc5c4C(=O)N(C4CCC(=O)NC4=O)C5=O)nn3)c2n1 (centres undefined) | 4.1
O=C1CCC(N2C(=O)c3cccc(NCc4cn(CCCCCCCn5c(=O)c(-c6ccc(Cl)cc6Cl)cc6cnc(NC7CC7)nc65)nn4)c3C2=O)C(=O)N1 (centres undefined) | 56.1
CNc1ncc2cc(-c3ccc(Cl)cc3Cl)c(=O)n(CCCCCCCn3cc(CNc4cccc5c4C(=O)N(C4CCC(=O)NC4=O)C5=O)nn3)c2n1 (centres undefined) | 45.5

Requested read-out: Activity. Entry: O=C1CCC(N2C(=O)c3cccc(NCc4cn(CCCCn5c(=O)c(-c6ccc(Cl)cc6Cl)cc6cnc(NC7CC7)nc65)nn4)c3C2=O)C(=O)N1 (centres undefined) 23.9

Requested read-out: Activity. Entry: CNc1ncc2cc(-c3ccc(Cl)cc3Cl)c(=O)n(CCOCCOCCOCCn3cc(CNc4cccc5c4C(=O)N(C4CCC(=O)NC4=O)C5=O)nn3)c2n1 (centres undefined) 1.2

Requested read-out: Activity. Entry: O=C1CCC(N2C(=O)c3cccc(NCc4cn(CCOCCOCCn5c(=O)c(-c6ccc(Cl)cc6Cl)cc6cnc(NC7CC7)nc65)nn4)c3C2=O)C(=O)N1 (centres undefined) 23.9

Requested read-out: Activity. Entry: CNc1ncc2cc(-c3ccc(Cl)cc3Cl)c(=O)n(CCCCn3cc(CNc4cccc5c4C(=O)N(C4CCC(=O)NC4=O)C5=O)nn3)c2n1 (centres undefined) 2.8

====

experimental_system: von Hippel-Lindau disease tumor suppressor/Serine/threonine-protein kinase PAK 1 (Homo sapiens, UniProt Q13153+P40337)
protocol: PROTAC activity at VHL/PAK1 in human MDA-MB-231 cells assessed as induction of protein degradation at 2.5 uM incubated for 48 hrs by Western blot analysis relative to control
Format: cell-based
# key: entry, value: Activity

Example results:
structure_as_smiles | Activity
Cc1ncsc1-c1ccc([C@H](C)NC(=O)[C@@H]2C[C@@H](O)CN2C(=O)[C@@H](NC(=O)CCc2cn(CCOCCOCCn3c(=O)c(-c4ccc(Cl)cc4Cl)cc4cnc(NC5CC5)nc43)nn2)C(C)(C)C)cc1 | 3.8%
Cc1ncsc1-c1ccc([C@H](C)NC(=O)[C@@H]2C[C@@H](O)CN2C(=O)[C@@H](NC(=O)CCCc2cn(CCOCCn3c(=O)c(-c4ccc(Cl)cc4Cl)cc4cnc(NC5CC5)nc43)nn2)C(C)(C)C)cc1 | 31.7%
Cc1ncsc1-c1ccc([C@H](C)NC(=O)[C@@H]2C[C@@H](O)CN2C(=O)[C@@H](NC(=O)CCCc2cn(CCOCCOCCOCCn3c(=O)c(-c4ccc(Cl)cc4Cl)cc4cnc(NC5CC5)nc43)nn2)C(C)(C)C)cc1 | 5.1%
Cc1ncsc1-c1ccc([C@H](C)NC(=O)[C@@H]2C[C@@H](O)CN2C(=O)[C@@H](NC(=O)CCCCc2cn(CCOCCn3c(=O)c(-c4ccc(Cl)cc4Cl)cc4cnc(NC5CC5)nc43)nn2)C(C)(C)C)cc1 | 30.1%
Cc1ncsc1-c1ccc([C@H](C)NC(=O)[C@@H]2C[C@@H](O)CN2C(=O)[C@@H](NC(=O)CCCc2cn(CCCCCCn3c(=O)c(-c4ccc(Cl)cc4Cl)cc4cnc(NC5CC5)nc43)nn2)C(C)(C)C)cc1 | 29.1%

Requested read-out: Activity. Entry: `Cc1ncsc1-c1ccc([C@H](C)NC(=O)[C@@H]2C[C@@H](O)CN2C(=O)[C@@H](NC(=O)CCCc2cn(CCOCCOCCn3c(=O)c(-c4ccc(Cl)cc4Cl)cc4cnc(NC5CC5)nc43)nn2)C(C)(C)C)cc1` 2.7%

====

# key: entry, value: Activity
experimental_system: von Hippel-Lindau disease tumor suppressor/Serine/threonine-protein kinase PAK 1 (Homo sapiens, UniProt Q13153+P40337)
protocol: PROTAC activity at VHL/PAK1 in human MDA-MB-231 cells assessed as induction of protein degradation at 0.1 uM incubated for 48 hrs by Western blot analysis relative to control
Type: cell-based
Numbers only here, please. The scale is %.

structure_as_smiles | Activity [%]
Cc1ncsc1-c1ccc([C@H](C)NC(=O)[C@@H]2C[C@@H](O)CN2C(=O)[C@@H](NC(=O)CCc2cn(CCCCCCCn3c(=O)c(-c4ccc(Cl)cc4Cl)cc4cnc(NC5CC5)nc43)nn2)C(C)(C)C)cc1 | 52.4
Cc1ncsc1-c1ccc([C@H](C)NC(=O)[C@@H]2C[C@@H](O)CN2C(=O)[C@@H](NC(=O)CCc2cn(CCCCCCn3c(=O)c(-c4ccc(Cl)cc4Cl)cc4cnc(NC5CC5)nc43)nn2)C(C)(C)C)cc1 | 39.1

Requested read-out: Activity. Entry: `Cc1ncsc1-c1ccc([C@H](C)NC(=O)[C@@H]2C[C@@H](O)CN2C(=O)[C@@H](NC(=O)CCc2cn(CCOCCn3c(=O)c(-c4ccc(Cl)cc4Cl)cc4cnc(NC5CC5)nc43)nn2)C(C)(C)C)cc1` 15.7

====

experimental_system: von Hippel-Lindau disease tumor suppressor/Serine/threonine-protein kinase PAK 1 (Homo sapiens, UniProt Q13153+P40337)
protocol: PROTAC activity at VHL/PAK1 in human MDA-MB-231 cells assessed as induction of protein degradation at 2.5 uM incubated for 48 hrs by Western blot analysis relative to control
Format: cell-based
property_name: Activity

Example results:
structure_as_smiles | measurement
Cc1ncsc1-c1ccc([C@H](C)NC(=O)[C@@H]2C[C@@H](O)CN2C(=O)[C@@H](NC(=O)CCCc2cn(CCCCCCCn3c(=O)c(-c4ccc(Cl)cc4Cl)cc4cnc(NC5CC5)nc43)nn2)C(C)(C)C)cc1 | 68.2%
Cc1ncsc1-c1ccc([C@H](C)NC(=O)[C@@H]2C[C@@H](O)CN2C(=O)[C@@H](NC(=O)CCCCc2cn(CCOCCOCCn3c(=O)c(-c4ccc(Cl)cc4Cl)cc4cnc(NC5CC5)nc43)nn2)C(C)(C)C)cc1 | -4.8%
Cc1ncsc1-c1ccc([C@H](C)NC(=O)[C@@H]2C[C@@H](O)CN2C(=O)[C@@H](NC(=O)CCc2cn(CCCCCn3c(=O)c(-c4ccc(Cl)cc4Cl)cc4cnc(NC5CC5)nc43)nn2)C(C)(C)C)cc1 | 17.4%
Cc1ncsc1-c1ccc([C@H](C)NC(=O)[C@@H]2C[C@@H](O)CN2C(=O)[C@@H](NC(=O)CCCc2cn(CCCCCn3c(=O)c(-c4ccc(Cl)cc4Cl)cc4cnc(NC5CC5)nc43)nn2)C(C)(C)C)cc1 | 45.5%
Cc1ncsc1-c1ccc([C@H](C)NC(=O)[C@@H]2C[C@@H](O)CN2C(=O)[C@@H](NC(=O)CCc2cn(CCCCCCCn3c(=O)c(-c4ccc(Cl)cc4Cl)cc4cnc(NC5CC5)nc43)nn2)C(C)(C)C)cc1 | 71%

Requested read-out: Activity. Entry: `Cc1ncsc1-c1ccc([C@H](C)NC(=O)[C@@H]2C[C@@H](O)CN2C(=O)[C@@H](NC(=O)CCc2cn(CCOCCOCCOCCn3c(=O)c(-c4ccc(Cl)cc4Cl)cc4cnc(NC5CC5)nc43)nn2)C(C)(C)C)cc1` 7.1%

Requested read-out: Activity. Entry: `Cc1ncsc1-c1ccc([C@H](C)NC(=O)[C@@H]2C[C@@H](O)CN2C(=O)[C@@H](NC(=O)CCCCc2cn(CCCCCCCn3c(=O)c(-c4ccc(Cl)cc4Cl)cc4cnc(NC5CC5)nc43)nn2)C(C)(C)C)cc1` 18.2%

Requested read-out: Activity. Entry: `Cc1ncsc1-c1ccc([C@H](C)NC(=O)[C@@H]2C[C@@H](O)CN2C(=O)[C@@H](NC(=O)CCCCc2cn(CCCCn3c(=O)c(-c4ccc(Cl)cc4Cl)cc4cnc(NC5CC5)nc43)nn2)C(C)(C)C)cc1` 14.4%

Requested read-out: Activity. Entry: `Cc1ncsc1-c1ccc([C@H](C)NC(=O)[C@@H]2C[C@@H](O)CN2C(=O)[C@@H](NC(=O)CCCCc2cn(CCCCCn3c(=O)c(-c4ccc(Cl)cc4Cl)cc4cnc(NC5CC5)nc43)nn2)C(C)(C)C)cc1` 57%
